The measurements presented in this section are drawn from patent US20160220637A1.

experimental_protocol: Solubility study
Type: physicochemical
measurement_parameters: PBS, pH 7.4, PBS, pH 7.4; HPLC of supernatant
Structures can show the parent of a compound that is named as a salt. Non-standard residues stand in square brackets, D forms with d. Residues, ends and D or L forms follow the SMILES beside them. dBta = N[C@H](Cc1csc2ccccc12)C(=O)O; Api = NC1(C(=O)O)CCNCC1; Inp = O=C(O)C1CCNCC1
result_type: solubility (µg/mL)
Numeric only. Scale: µg/mL

Request: Using the record for NC(=O)C1(NC(=O)[C@H](Cc2ccccc2)NC(=O)[C@@H](Cc2c[nH]c3ccccc23)NC(=O)[C@@H](Cc2csc3ccccc23)NC(=O)C2CCNCC2)CCNCC1 [Pamoate salt of Example 1] (H-[Inp][dBta][dW]F[Api]-NH2) , report its solubility.
Result: 70
